molecular target: NAD(P)H dehydrogenase [quinone] 1 (Homo sapiens); test: Metabolism by recombinant human NQO1 monitored by spectrophotometric cytochrome assay; format: ADME
Sequence (P15559 whole entry): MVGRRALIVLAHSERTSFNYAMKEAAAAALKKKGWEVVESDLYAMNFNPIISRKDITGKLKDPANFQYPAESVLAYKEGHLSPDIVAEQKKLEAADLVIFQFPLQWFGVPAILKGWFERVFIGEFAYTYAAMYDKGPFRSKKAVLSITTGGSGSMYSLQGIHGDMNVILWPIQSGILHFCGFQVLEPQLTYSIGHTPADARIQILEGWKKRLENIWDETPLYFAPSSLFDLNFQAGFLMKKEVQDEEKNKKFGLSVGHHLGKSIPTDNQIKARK
Output class 1 for MET not less than 10 µmol/min/mg; output class 0 otherwise.

Query :: Does "COC(=O)c1nc(-c2ccc3c(n2)C(=O)C(Br)=CC3=O)c2[nH]c3ccccc3c2c1C" have a reported MET of at least 10 µmol/min/mg?
Result :: class 0

Query :: Same lookup for "COC(=O)c1[nH]c(-c2ccc3c(n2)C(=O)C(NC(C)=O)=CC3=O)c2nc3ccccc3c-2c1C" , please.
Result :: class 0

Query :: Same lookup for "O=C1C=CC(=O)c2nc(-c3[nH]ccc4c5ccccc5nc3-4)ccc21" , please.
Result :: class 0

Query :: Same lookup for "CC(=O)NC1=CC(=O)c2ccc(-c3[nH]c(C(=O)N4CCCCC4)cc4c5ccccc5nc3-4)nc2C1=O" , please.
Result :: class 1

Query :: Same lookup for "CC(=O)NC1=CC(=O)c2ccc(-c3[nH]c(C(=O)N4CCOCC4)cc4c5ccccc5nc3-4)nc2C1=O" , please.
Result :: class 0

Query :: Same lookup for "CC(=O)NC1=CC(=O)c2ccc(-c3nc(C(=O)OCCC(C)C)cc4c3[nH]c3ccccc34)nc2C1=O" , please.
Result :: class 1

Query :: Same lookup for "COC(=O)c1[nH]c(-c2ccc3c(n2)C(=O)C(=N)C=C3O)c2nc3ccccc3c-2c1C" , please.
Result :: class 1

====

molecular target: NAD(P)H dehydrogenase [quinone] 1 (Homo sapiens); test: Metabolism by recombinant human NQO1 monitored by spectrophotometric cytochrome assay; type: ADME
Assignment: determine reported MET for the given molecules.
Please state the figure in µmol/min/mg; there is no need to write the unit.

Query :: Endpoint output: MET of "CC(=O)NC1=CC(=O)c2ccc(-c3[nH]c(C(=O)OCCOP(=O)(O)O)cc4c5ccccc5nc3-4)nc2C1=O" . Value?
Result :: 15.4

Query :: Same lookup for "N=C1C=C(O)c2ccc(-c3nc(C(N)=O)cc4c3[nH]c3ccccc34)nc2C1=O" , please.
Result :: 18.3

Query :: Same lookup for "CCCCOC(=O)c1cc2c([nH]c3ccccc32)c(-c2ccc3c(n2)C(=O)C(NC(C)=O)=CC3=O)n1" , please.
Result :: 8.6

Query :: Same lookup for "NC1=CC(=O)c2ccc(-c3[nH]c(CO)cc4c5ccccc5nc3-4)nc2C1=O" , please.
Result :: 263

Query :: Same lookup for "CC(=O)NC1=CC(=O)c2ccc(-c3[nH]c(C(=O)OCCO)cc4c5ccccc5nc3-4)nc2C1=O" , please.
Result :: 11

Query :: Same lookup for "CCCCCCCCOC(=O)c1cc2c([nH]c3ccccc32)c(-c2ccc3c(n2)C(=O)C(N)=CC3=O)n1" , please.
Result :: 106

Query :: Same lookup for "CC(=O)NC1=CC(=O)c2ccc(-c3[nH]c(C(N)=O)cc4c5ccccc5nc3-4)nc2C1=O" , please.
Result :: 33

Query :: Same lookup for "CCCC(=O)NC1=CC(=O)c2ccc(-c3[nH]c(C(N)=O)cc4c5ccccc5nc3-4)nc2C1=O" , please.
Result :: 0.1

Query :: Same lookup for "COC(=O)c1[nH]c(-c2ccc3c(n2)C(=O)C(=N)C(Cl)=C3O)c2nc3ccccc3c-2c1C" , please.
Result :: 0.9

Query :: Same lookup for "COC(=O)c1cc2c([nH]c3ccccc32)c(-c2ccc3c(n2)C(=O)C(NC(C)=O)=CC3=O)n1" , please.
Result :: 0.9

Query :: Same lookup for "CCCCCOC(=O)c1cc2c([nH]c3ccccc32)c(-c2ccc3c(n2)C(=O)C(NC(C)=O)=CC3=O)n1" , please.
Result :: 9.2

Query :: Same lookup for "CC(=O)NC1=C(N2CC2)C(=O)c2ccc(-c3[nH]c(C(N)=O)cc4c5ccccc5nc3-4)nc2C1=O" , please.
Result :: 0.2

Query :: Same lookup for NC1=CC(=O)c2ccc(-c3[nH]ccc4c5ccccc5nc3-4)nc2C1=O [DECARBOXYDEMETHYLLAVENDAMYCIN] , please.
Result :: 24

Query :: Same lookup for "CC(=O)NC1=CC(=O)c2ccc(-c3[nH]ccc4c5ccccc5nc3-4)nc2C1=O" , please.
Result :: 2.7

Query :: Same lookup for "CCCCCCCCOC(=O)c1cc2c([nH]c3ccccc32)c(-c2ccc3c(n2)C(=O)C(NC(C)=O)=CC3=O)n1" , please.
Result :: 1.5

Query :: Same lookup for "CCCCCCOC(=O)c1cc2c([nH]c3ccccc32)c(-c2ccc3c(n2)C(=O)C(NC(C)=O)=CC3=O)n1" , please.
Result :: 11.7

Query :: Same lookup for "COC(=O)c1[nH]c(-c2ccc3c(n2)C(=O)C(NC(C)=O)=C(N2CCCC2)C3=O)c2nc3ccccc3c-2c1C" , please.
Result :: 1

Sourced from ChEMBL document CHEMBL1141863
